Where do the numbers come from? From paper PMC3673989.

- System tested: Pim-1 E124Q (Homo sapiens, UniProt P11309, E124Q)
- Construct: hexahistidine tag (TEV-cleavable) (cleaved yes); made in house; host or cells: E. coli BL21(DE3)
- Sequence (P11309 whole entry E124Q): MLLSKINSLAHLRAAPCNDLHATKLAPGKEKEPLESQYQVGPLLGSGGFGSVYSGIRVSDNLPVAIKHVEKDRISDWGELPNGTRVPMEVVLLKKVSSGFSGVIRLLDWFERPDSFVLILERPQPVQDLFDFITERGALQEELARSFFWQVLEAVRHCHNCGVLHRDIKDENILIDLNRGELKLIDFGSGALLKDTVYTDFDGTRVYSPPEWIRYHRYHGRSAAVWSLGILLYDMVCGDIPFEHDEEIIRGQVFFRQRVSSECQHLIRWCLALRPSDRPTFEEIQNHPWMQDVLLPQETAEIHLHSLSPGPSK
- Assay summary: Inhibitor binding by temperature shift assay (SYPRO Orange)
- Measurement parameters: Pim-1 E124Q 2 µM, compound 10 µM
Reported endpoint: ΔTm (K)

Molecule	System tested	Experimental result
Cn1c2c(c3ccc(Cl)c(Cl)c31)C(C#N)C1(CCOCC1)NC2=O (stereo not shown) [K01741a]	Pim-1 E124Q (Homo sapiens, UniProt P11309, E124Q)	3.3
COCCNc1ccc2ncc(-c3cccc(Cl)c3)n2n1 [K00478]	Pim-1 E124Q (Homo sapiens, UniProt P11309, E124Q)	4.9
CC(C)[C@@H](CO)Nc1ccc2ncc(-c3cccc(Cl)c3)n2n1 [K00514]	Pim-1 E124Q (Homo sapiens, UniProt P11309, E124Q)	6.1

I = CC(C)[C@@H](CO)Nc1ccc2ncc(-c3cccc(C(F)(F)F)c3)n2n1 [K00516]
II = CC(=O)c1cccc(-c2cnc3ccc(N[C@H](CO)C(C)C)nn23)c1 [K00518]
[Q] Could you tell me which of I and II has the lower ΔTm reading? When you have decided, please share the label of that item.
[A] II

1 = CCC(CO)Nc1ccc2ncc(-c3cccc(OC(F)(F)F)c3)n2n1 (stereo not shown) [K00487]
2 = FC(F)(F)Oc1cccc(-c2cnc3ccc(NCC4CC4)nn23)c1 [K00520]
[Q] Consider 1 and 2 . Which of these has its ΔTm at a higher number? Which one? Tell me its label.
[A] 1
(1: 7.6 K, 2: 5.0 K)

###

- System tested: Pim-1 wild type (Homo sapiens, UniProt P11309)
- Construct: hexahistidine tag (TEV-cleavable) (cleaved yes); made in house; host or cells: E. coli BL21(DE3)
- Sequence (P11309 whole entry): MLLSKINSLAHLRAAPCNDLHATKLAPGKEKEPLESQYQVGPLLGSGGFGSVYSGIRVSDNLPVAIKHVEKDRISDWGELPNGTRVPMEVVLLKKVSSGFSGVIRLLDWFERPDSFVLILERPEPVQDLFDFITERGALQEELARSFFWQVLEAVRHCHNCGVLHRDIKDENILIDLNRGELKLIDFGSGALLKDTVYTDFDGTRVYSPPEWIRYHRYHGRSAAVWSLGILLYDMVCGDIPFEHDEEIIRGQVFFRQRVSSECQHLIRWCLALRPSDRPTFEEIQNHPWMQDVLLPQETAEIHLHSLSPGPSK
- Assay summary: Inhibitor binding by temperature shift assay (SYPRO Orange)
- Measurement parameters: Pim-1 wild type 2 µM, compound 10 µM
Reported endpoint: ΔTm (K)

Below: 5 compounds and their reported ΔTm.
Compound	Quantity unit	Experimental result
FC(F)(F)Oc1cccc(-c2cnc3ccc(NCC4CC4)nn23)c1	K	6.8
COCCNc1ccc2ncc(-c3cccc(Cl)c3)n2n1	K	6.0
Cn1c2c(c3ccc(Cl)c(Cl)c31)C(C#N)C1(CCOCC1)NC2=O (stereo not shown) [K01741a]	K	5.1
CC(C)[C@@H](CO)Nc1ccc2ncc(-c3cccc(C(F)(F)F)c3)n2n1	K	8.2
Clc1ccc(-c2cnc3ccc(NC4CCOCC4)nn23)cc1	K	5.5

a = CCN1CCC2(CC1)NC(=O)c1c(c3ccc(Cl)c(Cl)c3n1C)C2C#N (stereo not shown) [K01786a]
b = CC(=O)c1cccc(-c2cnc3ccc(N[C@H](CO)C(C)C)nn23)c1
[Q] Looking at a and b , which one comes out lower in ΔTm terms? Which one? Tell me its label.
[A] b
(b: 5.6 K, a: 8.4 K)

###

- System tested: Pim-1 E142D (Homo sapiens, UniProt P11309, E142D)
- Construct: hexahistidine tag (TEV-cleavable) (cleaved yes); made in house; host or cells: E. coli BL21(DE3)
- Sequence (P11309 whole entry E142D): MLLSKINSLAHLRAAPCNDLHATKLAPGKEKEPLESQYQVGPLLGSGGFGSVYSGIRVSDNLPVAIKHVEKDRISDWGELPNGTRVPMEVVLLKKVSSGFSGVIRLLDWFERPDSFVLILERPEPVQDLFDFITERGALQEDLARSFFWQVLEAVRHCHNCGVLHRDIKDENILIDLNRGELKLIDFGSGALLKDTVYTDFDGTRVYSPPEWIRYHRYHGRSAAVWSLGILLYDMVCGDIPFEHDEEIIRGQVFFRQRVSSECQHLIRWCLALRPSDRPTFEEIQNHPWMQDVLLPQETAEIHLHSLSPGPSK
- Assay summary: Inhibitor binding by temperature shift assay (SYPRO Orange)
- Measurement parameters: Pim-1 E142D 2 µM, compound 10 µM
Reported endpoint: ΔTm (K)

Molecule	Experimental result
Clc1ccc(-c2cnc3ccc(NC4CCOCC4)nn23)cc1 [K00499]	6.6

A = CC(=O)c1cccc(-c2cnc3ccc(N[C@H](CO)C(C)C)nn23)c1 [K00518]
B = CC(C)[C@@H](CO)Nc1ccc2ncc(-c3cccc(C(F)(F)F)c3)n2n1 [K00516]
[Q] Lab log: flag the item ( A or B ) with the smaller ΔTm figure. Label of pick, please.
[A] A
(A: 5.3 K, B: 7.7 K)
